Cited source: the supplement of paper PMC5998384

System: HeLa Kyoto;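 further: HeLa Kyoto cells synchronized by double thymidine or nocodazole block, proteins quantified by TMT10plex mass spectrometry, three independent biological replicates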
Assay: melting temperature (median over replicates), in situ; higher = more thermally stable
Details: cell cycle stage: G1/S
Field: melting temperature. Provide a value for each of the substances that follow.
Numbers only, in °C.

Would you please look over these solved cases?
>>> val("MSYTPGVGGDPAQLAQRISSNIQKITQCSVEIQRTLNQLGTPQDSPELRQQLQQKQQYTNQLAKETDKYIKEFGSLPTTPSEQRQRKIQKDRLVAEFTTSLTNFQKVQRQAAEREKEFVARVRASSRVSGSFPEDSSKERNLVSWESQTQPQVQVQDEEITEDDLRLIHERESSIRQLEADIMDINEIFKDLGMMIHEQGDVIDSIEANVENAEVHVQQANQQLSRAADYQRKSRKTLCIIILILVIGVAIISLIIWGLNH [STX7]")
54.1
>>> val("MNSNVENLPPHIIRLVYKEVTTLTADPPDGIKVFPNEEDLTDLQVTIEGPEGTPYAGGLFRMKLLLGKDFPASPPKGYFLTKIFHPNVGANGEICVNVLKRDWTAELGIRHVLLTIKCLLIHPNPESALNEEAGRLLLENYEEYAARARLLTEIHGGAGGPSGRAEAGRALASGTEASSTDPGAPGGPGGAEGPMAKKHAGERDKKLAAKKKTDKKRALRRL [UBE2S]")
51

For the 2 substances below, give their melting temperature values.
1. ARHGAP4
2. MPLENLEEEGLPKNPDLRIAQLRFLLSLPEHRGDAAVRDELMAAVRDNNMAPYYEALCKSLDWQIDVDLLNKMKKANEDELKRLDEELEDAEKNLGESEIRDAMMAKAEYLCRIGDKEGALTAFRKTYDKTVALGHRLDIVFYLLRIGLFYMDNDLITRNTEKAKSLIEEGGDWDRRNRLKVYQGLYCVAIRDFKQAAELFLDTVSTFTSYELMDYKTFVTYTVYVSMIALERPDLREKVIKGAEILEVLHSLPAVRQYLFSLYECRYSVFFQSLAVVEQEMKKDWLFAPHYRYYVREMRIHAYSQLLESYRSLTLGYMAEAFGVGVEFIDQELSRFIAAGRLHCKIDKVNEIVETNRPDSKNWQYQETIKKGDLLLNRVQKLSRVINM [PSMD6]

1: 52.5; 2: 53.3
